- System: barnyardgrass
- method-summary: Test A pre-/postemergence herbicide test
- Format: in vivo, Echinochloa crus-galli
- recorded-conditions: Preemergence, 125 g ai/ha; 0 to 100 scale where 0 is no effect and 100 is complete control
result-type: Plant response rating, Barnyardgrass
API doc: respond with a numeric literal and nothing else, no unit.

In: I would be grateful if you could share the reported Plant response rating, Barnyardgrass for O=C1NCC(c2ccc(Cl)c(C(F)(F)F)c2)C1C(=O)Nc1cccc(F)c1F (racemic) [Compound 268] .
Out: 70

In: What about this molecule? O=C1NCC(c2cccc(C(F)(F)F)c2)C1C(=O)Nc1cccc(C(F)(F)F)c1 (centres unmarked) [Compound 313]
Out: 50

In: Now the same for O=C1NCC(c2cc(F)cc(F)c2)C1C(=O)Nc1cccc(F)c1F (racemic) [Compound 279]
Out: 80

More entries:
In: Could you share which Plant response rating, Barnyardgrass value was measured for O=C1NCC(c2ccc(C(F)(F)F)c(F)c2)C1C(=O)Nc1ccccc1F (racemic) [Compound 246] ?
Out: 80

In: Next record, please: O=C1NCC(c2ccc(C(F)(F)F)c(Cl)c2)C1C(=O)Nc1cccc(F)c1F (racemic) [Compound 250]
Out: 20

In: What do you get for O=C1NCC(c2ccc(Cl)s2)C1C(=O)Nc1ccccc1C(F)(F)F (centres unmarked) [Compound 293] ?
Out: 20

In: // repeat for O=C1NCC(c2cccc(Br)c2)C1C(=O)Nc1ccccc1F (centres unmarked) [Compound 307] and report
Out: 80

In: Next: O=C1NCC(c2cccc(OC(F)F)c2)C1C(=O)Nc1ccc(F)c(F)c1F (centres unmarked) [Compound 325]
Out: 90

----------
Reported Corn plant response rating values follow for various compounds
- System: corn
- method-summary: Test C pre-/postemergence herbicide test
- Assay type: in vivo, Zea mays
- recorded-conditions: Preemergence, 62 g ai/ha; scale 0 to 100 (0 no effect, 100 complete control)
Keep it simple and answer with nothing but the number.

In: Request the reported Corn plant response rating associated with O=C1NCC(c2cccc(Cl)c2)C1C(=O)Nc1cccc(F)c1F (racemic)
Out: 10

In: Entry O=C(Nc1ccccc1F)C1C(=S)NCC1c1cccc(C(F)(F)F)c1 (stereo not shown) please
Out: 5

In: O=C1NCC(c2ccc(C(F)(F)F)nc2)C1C(=O)Nc1cccc(F)c1F (racemic) ?
Out: 0

// below: Corn plant response rating requested for another compound
In: Need Corn plant response rating, item O=C1NCC(c2cccc(C(F)(F)F)c2)C1C(=O)Nc1cccc(F)c1F (stereo not shown)
Out: 65

----------
- Test system: ryegrass, Italian
- method-summary: Test C pre-/postemergence herbicide test
- Assay type: in vivo, Lolium multiflorum
- recorded-conditions: Preemergence, 250 g ai/ha
result-type: Plant response rating (scale of 0 to 100), Ryegrass, Italian
Field format: numeric only.

Answered examples (4):
In: Query: Plant response rating (scale of 0 to 100), Ryegrass, Italian; subject: O=C1NCC(c2ccc(F)c(C(F)(F)F)c2)C1C(=O)Nc1ccccc1F (racemic)
Out: 40

In: Ok, now O=C1NCC(c2cccc(Br)c2)C1C(=O)Nc1ccccc1F (centres unmarked)
Out: 10

In: Also, O=C(Nc1ccccc1F)C1C(=S)NCC1c1cccc(C(F)(F)F)c1 (centres unmarked) please.
Out: 30

In: Now consider O=C1NCC(c2cc(F)cc(F)c2)C1C(=O)Nc1ccc(F)cc1F (racemic) .
Out: 0

New cases:
In: # lookup: Plant response rating (scale of 0 to 100), Ryegrass, Italian of O=C1NCC(c2cccc(C(F)(F)F)c2)C1C(=O)Nc1ccc(F)cc1F (racemic)
Out: 0

----------
Measured Plant response rating, Blackgrass accompanies every entry in the list below.
- System: blackgrass
- method-summary: Test C pre-/postemergence herbicide test
- Type: in vivo, Alopecurus myosuroides
- recorded-conditions: Postemergence; 250 g ai/ha; scale 0 to 100 (0 no effect, 100 complete control)
Respond with the number and no other words.

Recorded Plant response rating, Blackgrass, per entry:
In: Can you look up the measured Plant response rating, Blackgrass of O=C1NCC(c2cccc(OC(F)F)c2)C1C(=O)Nc1cccc(F)c1F (stereo not shown) [Compound 324] for me?
Out: 0

In: Try this compound next: O=C1NCC(c2cccc(OC(F)F)c2)C1C(=O)Nc1ccc(F)c(F)c1F (stereo not shown) [Compound 325]
Out: 35

In: Repeat for the following compound: O=C1NCC(c2cc(F)cc(F)c2)C1C(=O)Nc1cccc(F)c1F (racemic) [Compound 279]
Out: 0

More entries:
In: Form field: reported Plant response rating, Blackgrass of O=C1NCC(c2cccc(C(F)(F)F)c2)C1C(=O)Nc1ccc(F)cc1F (racemic) [Compound 207]
Out: 0

----------
- System: waterhemp
- method-summary: Test C pre-/postemergence herbicide test
- Assay type: in vivo, Amaranthus rudis
- recorded-conditions: Preemergence, 62 g ai/ha; scale 0 to 100 (0 no effect, 100 complete control)
result-type: Waterhemp plant response rating
Just the number, please.

Some compounds with known Waterhemp plant response rating results, for comparison:
In: Fill in the blank: the reported Waterhemp plant response rating of O=C1NCC(c2cccc(Cl)c2)C1C(=O)Nc1cccc(F)c1F (racemic) is ____.
Out: 0

In: And what about the compound O=C1NCC(c2cccc(C(F)(F)F)c2)C1C(=O)Nc1ccccc1Cl (centres unmarked) ?
Out: 45

In: Now the compound O=C1NCC(c2cccc(Br)c2)C1C(=O)Nc1cccc(F)c1F (centres unmarked)
Out: 0

In: Now the compound CN1CC(c2cccc(C(F)(F)F)c2)C(C(=O)Nc2ccccc2F)C1=O (centres unmarked)
Out: 50

Continue with the compound presented below.
In: Fill in: Waterhemp plant response rating of O=C1NCC(c2cccc(OC(F)F)c2)C1C(=O)Nc1ccc(F)c(F)c1F (centres unmarked) is ___
Out: 75

----------
- Tested on: kochia
- method-summary: Test A pre-/postemergence herbicide test
- Type: in vivo, Kochia scoparia
- recorded-conditions: preemergence; 500 g ai/ha; 0 to 100 scale, 0 is no effect and 100 is complete control
result-type: Plant response rating, Kochia

In: Returns the measured Plant response rating, Kochia for the input molecule. Input: CC(C)(C)c1cccc(C2CNC(=O)C2C(=O)Nc2ccccc2C(F)(F)F)c1 (racemic)
Out: 0

----------
- Tested on: barnyardgrass
- method-summary: Test A pre-/postemergence herbicide test
- Type: in vivo, Echinochloa crus-galli
- recorded-conditions: Postemergence, 500 g ai/ha; 0 to 100 scale (0 no effect, 100 complete control)
Lab note: anything with Plant response rating, Barnyardgrass below 70 is marked true; values at 70 or higher are marked false.

Example entries and their recorded answers appear below.
In: Lab note: Plant response rating, Barnyardgrass threshold 70. Does this compound come in strictly under it? O=C1NCC(c2ccc(Br)c(Br)c2)C1C(=O)Nc1cccc(F)c1F (stereo not drawn)
Out: true

In: Same question for O=C1NCC(c2cc3ccccc3o2)C1C(=O)Nc1cccc(F)c1F (stereo not drawn) please.
Out: false

In: Also O=C1NCC(c2cccc(F)c2)C1C(=O)Nc1ccccc1F (racemic) ?
Out: false

In: Now try O=C1NCC(c2ccc(C(F)(F)F)nc2)C1C(=O)Nc1cccc(F)c1F (racemic) .
Out: false

In: Next entry: O=C1NCC(c2cccc(OC(F)F)c2)C1C(=O)Nc1cccc(F)c1F (stereo not drawn)
Out: false

In: Also, O=C1NCC(c2ccc(F)c(Cl)c2)C1C(=O)Nc1cccc(F)c1F (stereo not drawn) please.
Out: false

Please examine the following record next.
In: Quick check: does O=C1NCC(c2ccsc2)C1C(=O)Nc1ccccc1C(F)(F)F (racemic) have Plant response rating, Barnyardgrass under 70?
Out: true

----------
- Test system: wheat (winter wheat)
- method-summary: Test C pre-/postemergence herbicide test
- Format: in vivo, Triticum aestivum
- recorded-conditions: Postemergence; 250 g ai/ha; scale 0 to 100 (0 no effect, 100 complete control)
Entries and their Plant response rating, Wheat
Form: value (number only, do not type unit).

Examples with their reported Plant response rating, Wheat follow.
In: GET /values?readout=Plant response rating, Wheat&item= CN1CC(c2ccc(F)c(F)c2)C(C(=O)Nc2ccccc2F)C1=O (stereo not shown)
Out: 0

In: Param item: O=C1NCC(c2ccc(F)c(C(F)(F)F)c2)C1C(=O)Nc1ccccc1F (racemic)
Out: 5

In: Now consider O=C1NCC(c2ccccc2)C1C(=O)Nc1ccccc1F (racemic) and answer again.
Out: 0

Now look at this one.
In: Record request: Plant response rating, Wheat value, item O=C1NCC(c2cc(F)c(F)c(F)c2)C1C(=O)Nc1ccccc1F (racemic)
Out: 0

----------
- System: galium
- method-summary: Test A postemergence herbicide test
- Format: in vivo, Galium aparine
- recorded-conditions: 125 g ai/ha, visual rating on 0 to 100 scale (0 no effect, 100 complete control), approx. 10 days
result-type: Plant response rating, Galium
Could you keep your reply to the number by itself?

Guide cases for Plant response rating, Galium, answers given:
In: Look at this compound and give its reported Plant response rating, Galium. O=C1NCC(c2cc3ccccc3s2)C1C(=O)Nc1cccc(F)c1F (centres unmarked)
Out: 0

In: Entry to check: CSc1cccc(C2CNC(=O)C2C(=O)Nc2ccc(F)cc2F)c1 (centres unmarked)
Out: 0

In: Cool, now O=C1NCC(c2ccc(OC(F)F)cc2)C1C(=O)Nc1ccccc1C(F)(F)F (centres unmarked)
Out: 0

In: For O=C1NCC(c2cccc(Oc3ccccc3)c2)C1C(=O)Nc1cccc(F)c1F (centres unmarked) then?
Out: 0

In: Can you handle O=C1NCC(c2cccc(C(F)(F)F)c2)C1C(=O)Nc1cccc(C(F)(F)F)c1 (centres unmarked) next?
Out: 0

In: Another compound to look at: O=C1NCC(c2cccc(Oc3ccccc3)c2)C1C(=O)Nc1ccccc1Cl (centres unmarked)
Out: 0

Continue with the compound presented below.
In: Which measured Plant response rating, Galium value corresponds to O=C1NCC(c2cc3ccccc3s2)C1C(=O)Nc1ccccc1C(F)(F)F (centres unmarked) ?
Out: 0
